These measurements were taken from patent US7208509B2.

# TARGET UNDER TEST: UniProt P03366
# EXPERIMENT DESCRIPTION: HIV Reverse Transcriptase Assay: Inhibitor IC50 Determination
# CONDITION INFO: purified recombinant enzyme, poly(rA)/oligo(dT)16 template-primer, [3H] dTTP, 37° C. for 30 min; read-out: RT inhibition IC50
OBSERVATION TYPE: pIC50
pIC50 field: float, defined as -log10 of concentration (mol/L).

>>> observed_value("Cn1c(Cc2ccc(Cl)c(Oc3cccc(Cl)c3)c2)n[nH]c1=O")
6.54

Note to self: pIC50 recorded for CCn1c(Cc2ccc(Cl)c(Oc3cccc(Cl)c3)c2)n[nH]c1=O was 6.35

Note to self: pIC50 recorded for CCn1c(Cc2ccc(Cl)c(Oc3ccccc3Cl)c2)n[nH]c1=O was 6.35

Note to self: pIC50 recorded for O=c1[nH]nc(Cc2ccc(Cl)c(Oc3ccccc3Cl)c2)s1 was 6.71
